Values were extracted from PubChem BioAssay (NCI).

Could you please report measured growth for the items listed next?
Tested on: SK-OV-3 ovarian
Experiment: NCI-60 one-dose screen, 48 h (100 = growth as untreated, 0 = no growth, -100 = all killed)
Conditions: 10 µM unless noted
Compounds without any hit were thinned out: in the full panel of roughly 83,000, 20% have a hit.
One number for each entry, in %.

Example compounds with recorded growth:
Cc1ccc(/C=C/c2n(Cc3ccc4ccccc4c3)c3ccccc3[n+]2Cc2ccc3ccccc3c2)cc1 :: -87.1
O=C(O)c1cccc(-c2ccc(/C=N/NC(=O)c3[nH]c4ccc(Br)cc4c3-c3ccccc3)s2)c1 :: 103
COc1ccc2cc([C@H](C)C(=O)N/N=C/c3ccc(Br)cc3)ccc2c1 :: 97.7
CSc1ccc(C(=O)Nc2ccc3nn(/C(C#N)=C/c4ccccn4)nc3c2)cc1 :: 30.8

Give one value of growth per listed compound.
1. C#CCOc1cc(N(CC)CC)ccc1C(C(=O)NC(C)(C)C)N(C(=O)C1CCc2cc(F)ccc2O1)c1ccc(F)c(Cl)c1 (configuration not stated)
2. Cc1cccc(-c2nc(Nc3cccc(S(N)(=O)=O)c3)c3ccccc3n2)c1
3. CC(=O)OC[C@@]1(C)C2CC[C@]3(C)C(CC=C4C5CC(C)(C)CC[C@]5(C(=O)Nc5ccc(C)cc5)CC[C@]43C)[C@@]2(C)C[C@@H](OC(C)=O)[C@@H]1OC(C)=O (some centres not stated)

Outgoing:
[73.1, 102, 54.3]
